TESTED_SYSTEM: G protein-coupled receptor 119 (GPR-119) (Mesocricetus auratus)
Construct: hamster-derived β-cells containing G protein-coupled receptor 119 (GPR-119), HIT-T15 cells; host or cells: HIT-T15 (hamster pancreatic β-cells)
Sequence (A0A1U8CD06 1-334): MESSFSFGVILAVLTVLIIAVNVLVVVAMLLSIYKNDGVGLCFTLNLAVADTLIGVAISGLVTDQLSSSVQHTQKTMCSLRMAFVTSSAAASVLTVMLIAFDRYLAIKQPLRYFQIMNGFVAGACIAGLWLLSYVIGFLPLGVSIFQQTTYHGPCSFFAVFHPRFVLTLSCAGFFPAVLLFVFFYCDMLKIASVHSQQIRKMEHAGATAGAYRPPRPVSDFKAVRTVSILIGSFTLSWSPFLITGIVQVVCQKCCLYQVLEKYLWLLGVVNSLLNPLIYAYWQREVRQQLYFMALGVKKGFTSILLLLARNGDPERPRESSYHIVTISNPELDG
PROTOCOL_DESCRIPTION: cAMP activity in HIT-T15 cells (cAMP dynamic kit, FRET)
Format: cell-based, hamster
CONDITION_LABEL: 1 hour at 37° C., six concentrations 0.0032 to 10 μM, read-out: EC50
Parameter class (string): assigned from measured EC50. Ranges: b0 (below 30 nM), b1 (30 nM to below 50 nM), b2 (50 nM or more)

Task: Note: place this molecule into its band. Item: CCc1cnc(N2CCC(COc3ccc(C4=CCC(C(=O)N5CCN(C(=O)OC(C)(C)C)CC5)CC4)cc3F)CC2)nc1 (stereo not drawn)
Result: b1

Task: Entry to check: CC(OC(=O)N1CCC(COc2ccc(C3=CCC(C(=O)N4CCOCC4)CC3)cc2F)CC1)C(F)(F)F (stereo not drawn)
Result: b0

Task: And the next one, CC(C)c1noc(N2CCC(COc3ccc(C4=CCC(C(=O)N5CCC(CCO)CC5)CC4)cc3F)CC2)n1 (stereo not drawn) ?
Result: b0

Task: Try this molecule next: CCc1cnc(N2CCC(COc3ccc(C4=CCC(C(=O)N5CCC(C(F)(F)F)CC5)CC4)cc3F)CC2)nc1 (stereo not drawn)
Result: b0

Task: # iterate: CCN1CCN(C(=O)C2CC=C(c3ccc(OCC4CCN(c5nc(C(C)C)no5)CC4)c(F)c3)CC2)CC1 (stereo not drawn) [Example 367]
Result: b0

Task: Let us now turn to O=C(NCCO)C1CC=C(c2ccc(OCC3CCN(c4ccccn4)CC3)cc2)CC1 (stereo not drawn)
Result: b2

Task: Same thing, different molecule: CC(C)c1noc(N2CCC(COc3ccc(C4=CCC(C(=O)N5CCC5)CC4)cc3F)CC2)n1 (stereo not drawn)
Result: b1

Task: Now consider CC(C)c1noc(N2CCC(COc3ccc(C4=CCC(C(=O)NCC(C)(C)CO)CC4)cc3F)CC2)n1 (stereo not drawn) and answer again.
Result: b1

Task: Item: CC(C)c1noc(N2CCC(COc3ccc(C4=CCC(C(=O)N5CCNCC5)CC4)cc3F)CC2)n1 (stereo not drawn)
Result: b2

Task: Also check CC(C)c1noc(N2CCC(COc3ccc(C4=CCC(C(=O)N5CCN(C6CC6)CC5)CC4)cn3)CC2)n1 (stereo not drawn)
Result: b1

Task: Same thing, different molecule: CCc1cnc(N2CCC(COc3ccc(C4=CCC(C(=O)N5CCCC5)CC4)cn3)CC2)nc1 (stereo not drawn)
Result: b0

Task: Continue with CCc1cnc(N2CCC(COc3ccc(C4=CCC(C(=O)N5CCN(C)CC5)CC4)cc3F)CC2)nc1 (stereo not drawn) [Example 428]
Result: b2

Task: Input CCc1cnc(N2CCC(COc3ccc(C4=CCC(C(=O)N5CCC(N6CCCC6)CC5)CC4)cc3F)CC2)nc1 (stereo not drawn)
Result: b2

Task: Here is the next molecule: O=C(C1CC=C(c2ccc(OCC3CCN(C(=O)C4(C(F)(F)F)CCCC4)CC3)c(F)c2)CC1)N1CCOCC1 (stereo not drawn)
Result: b0
